# credit: ChEMBL document CHEMBL3400016

Let's look at some compounds and their measured CC50.
run.description: Cytotoxicity against human HepG 2.2.15 cells by MTT assay
Assay type: cell-based, HepG2 2.2.15

// recorded CC50 for CC(=O)c1ccc(O[C@@H]2O[C@H](COC(=O)c3ccccc3)[C@@H](O)[C@H](O)[C@H]2O)cc1 : 1050 µM

// recorded CC50 for CC(=O)c1ccc(O[C@@H]2O[C@H](CO)[C@@H](O)[C@H](O)[C@H]2O)cc1 : > 3950 µM

***
// recorded CC50 for COc1cc(O[C@@H]2O[C@H](CO)[C@@H](O)[C@H](O)[C@H]2O)cc(O)c1C(C)=O : > 2370 µM

// recorded CC50 for COc1ccc(/C=C/C(=O)OC[C@H]2O[C@@H](Oc3ccc(C(C)=O)cc3)[C@H](O)[C@@H](O)[C@@H]2O)cc1OC : > 1450 µM

// recorded CC50 for C[C@H](Cn1cnc2c(N)ncnc21)OCP(=O)(O)O [TENOFOVIR ANHYDROUS] : > 1740 µM

---

run.description: Cytotoxicity against human HepG 2.2.15 cells by MTT assay
Assay type: cell-based, HepG2 2.2.15
Let's look at some compounds and their measured CC50.
Report only the number, with the unit µM understood.

Illustrative cases are given below, each with its answer.
// recorded CC50 for COc1cc(C(=O)Oc2ccc(C(C)=O)cc2)cc(OC)c1OC : 1210

// recorded CC50 for CC(=O)c1ccc(O[C@@H]2O[C@H](COC(=O)/C=C/c3ccc(F)c(F)c3)[C@@H](O)[C@H](O)[C@H]2O)cc1 : 874

// recorded CC50 for COc1cc(C(=O)OC[C@H]2O[C@@H](Oc3ccc(C(C)=O)cc3)[C@H](O)[C@@H](O)[C@@H]2O)cc(OC)c1OC : 890

// recorded CC50 for CC(=O)c1ccc(O[C@@H]2O[C@H](COC(=O)/C=C/c3cccc(F)c3)[C@@H](O)[C@H](O)[C@H]2O)cc1 : 828

***
// recorded CC50 for CC(=O)c1ccc(O[C@@H]2O[C@H](COC(=O)c3cccs3)[C@@H](O)[C@H](O)[C@H]2O)cc1 : 1570

// recorded CC50 for CC(=O)c1ccc(O[C@@H]2O[C@H](COC(=O)c3ccco3)[C@@H](O)[C@H](O)[C@H]2O)cc1 : 1170

// recorded CC50 for COc1ccc(/C=C/C(=O)OC[C@H]2O[C@@H](Oc3ccc(C(C)=O)cc3)[C@H](O)[C@@H](O)[C@@H]2O)cc1 : 1540

// recorded CC50 for CC(=O)c1ccc(OC(=O)c2cccnc2)cc1 : 3010

// recorded CC50 for COc1cc(/C=C/C(=O)OC[C@H]2O[C@@H](Oc3ccc(C(C)=O)cc3)[C@H](O)[C@@H](O)[C@@H]2O)cc(OC)c1OC : 925

// recorded CC50 for CC(=O)c1ccc(O)cc1 [4-HYDROXYACETOPHENONE] : 2390

// recorded CC50 for CC(=O)c1ccc(O[C@@H]2O[C@H](COC(=O)/C=C/c3ccc(F)cc3)[C@@H](O)[C@H](O)[C@H]2O)cc1 : 917

// recorded CC50 for CC(=O)c1ccc(O[C@@H]2O[C@H](COC(=O)/C=C/c3ccc(O)c(O)c3)[C@@H](O)[C@H](O)[C@H]2O)cc1 : 1580
